Data provenance is ChEMBL document CHEMBL4184227.

Procedure text: Cytotoxicity against human HepG2 cells assessed as cell viability at 100 uM after 48 hrs by MTT assay relative to control
Assay type: cell-based
Conditions: read-out: Activity
Outcome measure: viability at 48 h, 100 µM

Reported viability at 48 h, 100 µM ( `N#Cc1ccccc1Cn1c(N2CCNCC2)cc(=O)n2nccc12` ) = > 60%
